Cited source: patent US20140056903A1

Reported koff values follow for various binders
- study target: T1, human GFRα3 expressed with a C-terminal myc-myc-hexahistidine tag (human, UniProt O60609 32-374, biotinylated (sites not given) in ELISA format 2 and in the Octet cross-competition; not in SPR)
- T1 construct: also called hGFRα3-mmh; hGFRα3-mmH
- T1 sequence (O60609 other isoform, or with tags, fused parts or gaps limits assumed): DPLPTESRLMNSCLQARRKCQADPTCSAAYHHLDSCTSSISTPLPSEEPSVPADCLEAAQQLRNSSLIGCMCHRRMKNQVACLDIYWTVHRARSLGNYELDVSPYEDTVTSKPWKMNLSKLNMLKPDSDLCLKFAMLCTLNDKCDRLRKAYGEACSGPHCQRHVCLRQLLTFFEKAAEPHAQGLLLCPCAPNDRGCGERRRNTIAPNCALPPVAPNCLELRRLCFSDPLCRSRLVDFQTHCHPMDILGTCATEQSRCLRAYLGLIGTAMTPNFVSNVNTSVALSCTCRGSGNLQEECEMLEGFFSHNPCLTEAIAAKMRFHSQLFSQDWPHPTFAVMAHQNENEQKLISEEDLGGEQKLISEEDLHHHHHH
- test method notes: SPR, Ab captured, 25C
Expressed in s⁻¹, but write only the number.

Consider the following illustrative entries.
H4H2345S (antibody, human IgG4, V domains shown, human IgG4 Fc (H4H)) VH: EVQLVESGGGLVRPGRSLRLSCAASGFTFDNYAMHWVRQVPGKGLEWVSGITWNSVSLGYADSVKGRFTISRDNAQNSLYLQMNSLRTVDTALYYCAKDRWGGSYYFDFWGQGTLVTVSS VL: DIVMTQSPSSLSASVGDRVTITCRASQGISNYLAWYQQKPGKVPKLLIYSASTLQSGVPSRFSGSGSGTDFTLTISNLQPEDFATFFCQKYNSAPTFGGGTKVEIK | 0.00323
H1M2243N (antibody, V domains shown, chimeric, human variable and mouse constant domains (H1M)) VH: QVQLVQSGAEVKKPGASVKVSCKASGYTFTSYGIIWVRQAPGQGLEWMGWISGYNGNTNYTQNLQGRVTMTTDTSTTTAYMELRSLRSDDTAVYYCARWGIATRPYYYYGMDVWGQGTTVTVSS VL: DIQMTQSPSSLSASVGDRVTITCRASQDITNYLAWFQQKPGKAPKSLIYAASSLQSGVPSKFSGSGSGTDFTLTISSLQPEDFATYYCQQYNSYPPTFGPGTKVDIK | 0.000261
H4H2292S (antibody, human IgG4, V domains shown, human IgG4 Fc (H4H)) VH: EVQLVESGGGVVQPGRSLRLSCAASGFTFSSYGMHWVRQAPGKGLEWVSFIWYDGSNKYYADSVKGRFTISRDNSKNTLYLQMNSLTAEDTAVYYCARRGILTGTTAFDIWGQGTMVTVSS VL: DIQMTQSPSSLSASVGDRVTITCRASQSISSYLNWYQQKPGKAPKLLIYAASSLQSGVPSRFSGSGSGTDFTLTIRSLIPEDFATYYCQQTYNTPFTFGPGTKVEIK | 5.19e-05

Item: H4H2350P (antibody, human IgG4, V domains shown, human IgG4 Fc (H4H)) VH: QVQLQESGPGLVKPSETLSLTCTVSGGSISTYYWSWFRQPPGKGLEWIGYIYYSGSTNHNPSLKSRVTISVDTSKNQFSLKLRSVTAADTAVYYCARVGPVGWGSWGNFDYWGQGTLVTVSS VL: DIQLTQSPSFLSASVGDRVTITCWASQGISSYLAWSQQKPGKAPKLLIYAASTLQSGVPSRFSGSGSGTEFTLTISSLQPEDFATYYCQQLNSYPWTFGQGTKVEIK | koff: 0.000207

Item: H4H2295S (antibody, human IgG4, V domains shown, human IgG4 Fc (H4H)) VH: EVQLVESGGGLVQAGGSLRLSCVASGFTFSSYAMSWVRQAPGKGLEWVSAISGSGGSTYSADSVKGRFTISRDNSKNTLYLQMNSLRAEDTAVYYCTKPSSYSSSNFYYGMDVWGQGTTVTVSS VL: DIQMTQSPSSVSASVGDRVTITCRASQGISSWLAWYQQKPGKAPKLLIYTASSLQSGVPSRFSGSGSRTDFTLTISSLQPEDFATYYCQQTNSLPLTFGPGTKVEIK | koff: 0.000256
